# System: 317291-083-R-J1-PDC complex spheroids, viability
# protocol.text: Anticancer human tumor 317291-083-R-J1-PDC patient-derived soft tissue sarcoma cell line growth inhibition [GQUAD]
# cond: curve of first compound; second compound 1 µM
pIC50: −log10 of the molar value.
Provide the recorded pIC50 for the entries that follow.

>  <molecule>
COc1cccc2c1C(=O)c1c(O)c3c(c(O)c1C2=O)CC(O)(C(=O)CO)CC3OC1CC(N)C(O)C(C)O1 (stereo unspecified) + Cc1cnc(CNC(=O)c2c(=O)c3ccc(N4CCCN(C)CC4)nc3n3c2sc2ccccc23)cn1

>  <measured.target>
317291-083-R-J1-PDC complex spheroids, viability

>  <result>
> 7.50

$$$$
>  <molecule>
CCc1c2c(nc3ccc(O)cc13)-c1cc3c(c(=O)n1C2)COC(=O)[C@]3(O)CC + CN(C)c1ccc(Nc2c3ccc(NC(=O)CCN4CCCC4)cc3nc3cc(NC(=O)CCN4CCCC4)ccc23)cc1

>  <measured.target>
317291-083-R-J1-PDC complex spheroids, viability

>  <result>
> 9.00

$$$$
>  <molecule>
CC(C)n1c(=O)n(C)c2cnc3cc(F)c(-c4ccc(OCCCN5CCCCC5)nc4)cc3c21 + Cc1[nH]c2ccc(F)cc2c1-c1nc2c3cccnc3c3ncccc3c2[nH]1

>  <measured.target>
317291-083-R-J1-PDC complex spheroids, viability

>  <result>
< 5.00

$$$$
>  <molecule>
O=C(c1cc(Cc2n[nH]c(=O)c3ccccc23)ccc1F)N1CCN(C(=O)C2CC2)CC1 + Cc1cnc(CNC(=O)c2c(=O)c3ccc(N4CCCN(C)CC4)nc3n3c2sc2ccccc23)cn1

>  <measured.target>
317291-083-R-J1-PDC complex spheroids, viability

>  <result>
> 7.50

$$$$
>  <molecule>
O=C(c1cc(Cc2n[nH]c(=O)c3ccccc23)ccc1F)N1CCN(C(=O)C2CC2)CC1 + Cc1[nH]c2ccc(F)cc2c1-c1nc2c3cccnc3c3ncccc3c2[nH]1

>  <measured.target>
317291-083-R-J1-PDC complex spheroids, viability

>  <result>
< 5.00

$$$$

query: Return pIC50 for the following molecule: CCc1c2c(nc3ccc(O)cc13)-c1cc3c(c(=O)n1C2)COC(=O)[C@]3(O)CC + Cc1cnc(CNC(=O)c2c(=O)c3ccc(N4CCCN(C)CC4)nc3n3c2sc2ccccc23)cn1
result: > 9.00

###

# System: 317291-083-R-J1-PDC complex spheroids, viability
# protocol.text: Anticancer human tumor 317291-083-R-J1-PDC cell line growth inhibition [GQUAD];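 further: spheroids exposed to compounds for one week before readout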;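 on viability, T/C: percent viability relative to DMSO vehicle wells taken as 100%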
# cond: second compound 0.0316 µM; first compound 0.000999 µM; stronger effect = lower value
Can you tell me viability, T/C for the items I'm about to list?
Numbers only, in %.

Field: example entries. Status: answers known.
>  <compound>
CCc1c2c(nc3ccc(O)cc13)-c1cc3c(c(=O)n1C2)COC(=O)[C@]3(O)CC + CN(C)c1ccc(Nc2c3ccc(NC(=O)CCN4CCCC4)cc3nc3cc(NC(=O)CCN4CCCC4)ccc23)cc1

>  <recorded.endpoint>
viability, T/C

>  <unit.abbreviation>
%

>  <numeric.value>
58

$$$$
>  <compound>
CCc1c2c(nc3ccc(O)cc13)-c1cc3c(c(=O)n1C2)COC(=O)[C@]3(O)CC + Cc1cnc(CNC(=O)c2c(=O)c3ccc(N4CCCN(C)CC4)nc3n3c2sc2ccccc23)cn1

>  <recorded.endpoint>
viability, T/C

>  <unit.abbreviation>
%

>  <numeric.value>
39.3

$$$$
>  <compound>
Cn1ncnc1[C@H]1c2n[nH]c(=O)c3cc(F)cc(c23)N[C@@H]1c1ccc(F)cc1 + Cc1cnc(CNC(=O)c2c(=O)c3ccc(N4CCCN(C)CC4)nc3n3c2sc2ccccc23)cn1

>  <recorded.endpoint>
viability, T/C

>  <unit.abbreviation>
%

>  <numeric.value>
88.6

$$$$
>  <compound>
Cc1[nH]c2ccccc2c1CCNCc1ccc(/C=C/C(=O)NO)cc1 + CN(C)c1ccc(Nc2c3ccc(NC(=O)CCN4CCCC4)cc3nc3cc(NC(=O)CCN4CCCC4)ccc23)cc1

>  <recorded.endpoint>
viability, T/C

>  <unit.abbreviation>
%

>  <numeric.value>
104

$$$$

Then this compound:
query: For Cn1ncnc1[C@H]1c2n[nH]c(=O)c3cc(F)cc(c23)N[C@@H]1c1ccc(F)cc1 + Cc1[nH]c2ccc(F)cc2c1-c1nc2c3cccnc3c3ncccc3c2[nH]1 , write its viability, T/C.
result: 104

###

For each record, write down the corresponding viability, T/C.
# Tested on: 317291-083-R-J1-PDC complex spheroids, viability
# protocol.text: Anticancer human tumor 317291-083-R-J1-PDC cell line growth inhibition [GQUAD];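 further: spheroids exposed to compounds for one week before readout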;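 on viability, T/C: percent viability relative to DMSO vehicle wells taken as 100%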
# cond: second compound 0.0316 µM; first compound 1 µM; stronger effect = lower value
Give bare numbers, in %.

>  <molecule>
O=c1[nH]cc(F)c(=O)[nH]1 + Cc1cnc(CNC(=O)c2c(=O)c3ccc(N4CCCN(C)CC4)nc3n3c2sc2ccccc23)cn1

>  <recorded.endpoint>
viability, T/C

>  <numeric.value>
64.6

$$$$
>  <molecule>
COc1ncnc(C2CC2)c1-c1ncc2cnn(Cc3ccc(-c4nc(C(F)(F)F)cn4C(C)C)cc3)c2n1 + Cc1cnc(CNC(=O)c2c(=O)c3ccc(N4CCCN(C)CC4)nc3n3c2sc2ccccc23)cn1

>  <recorded.endpoint>
viability, T/C

>  <numeric.value>
72.2

$$$$
>  <molecule>
O=C(NO)c1cnc(N2CCN(S(=O)(=O)c3ccc4ccccc4c3)CC2)nc1 + Cc1cnc(CNC(=O)c2c(=O)c3ccc(N4CCCN(C)CC4)nc3n3c2sc2ccccc23)cn1

>  <recorded.endpoint>
viability, T/C

>  <numeric.value>
0.63

$$$$
>  <molecule>
O=c1[nH]cc(F)c(=O)[nH]1 + Cc1[nH]c2ccc(F)cc2c1-c1nc2c3cccnc3c3ncccc3c2[nH]1

>  <recorded.endpoint>
viability, T/C

>  <numeric.value>
69.5

$$$$
>  <molecule>
C=CCn1c(=O)c2cnc(Nc3ccc(N4CCN(C)CC4)cc3)nc2n1-c1cccc(C(C)(C)O)n1 + Cc1cnc(CNC(=O)c2c(=O)c3ccc(N4CCCN(C)CC4)nc3n3c2sc2ccccc23)cn1

>  <recorded.endpoint>
viability, T/C

>  <numeric.value>
28.8

$$$$

Kindly consider the entry below.
query: Return viability, T/C (reported value) for this molecule: Cc1cccc(N(C)C(=O)C2C(O)CCN2c2nc(C)cc(C(F)(F)F)c2C#N)c1 (stereo unspecified) + Cc1cnc(CNC(=O)c2c(=O)c3ccc(N4CCCN(C)CC4)nc3n3c2sc2ccccc23)cn1
result: 84.5

###

I'd appreciate it if you could supply viability, T/C values for the items below.
# Tested on: 317291-083-R-J1-PDC complex spheroids, viability
# protocol.text: Anticancer human tumor 317291-083-R-J1-PDC cell line growth inhibition [GQUAD];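 further: spheroids exposed to compounds for one week before readout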;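 on viability, T/C: percent viability relative to DMSO vehicle wells taken as 100%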
# cond: second compound 10 µM; first compound 1 µM; stronger effect = lower value

// solved cases for viability, T/C follow
>  <compound>
C=CC(=O)N1CCN(c2nc(=O)n(-c3c(C)ccnc3C(C)C)c3nc(-c4c(O)cccc4F)c(F)cc23)C(C)C1 (stereo not given) + CN(C)c1ccc(Nc2c3ccc(NC(=O)CCN4CCCC4)cc3nc3cc(NC(=O)CCN4CCCC4)ccc23)cc1

>  <measured.target>
317291-083-R-J1-PDC complex spheroids, viability

>  <viability, T/C>
8.02%

$$$$
>  <compound>
O=C(NO)c1cnc(N2CCN(S(=O)(=O)c3ccc4ccccc4c3)CC2)nc1 + Cc1cnc(CNC(=O)c2c(=O)c3ccc(N4CCCN(C)CC4)nc3n3c2sc2ccccc23)cn1

>  <measured.target>
317291-083-R-J1-PDC complex spheroids, viability

>  <viability, T/C>
0.1%

$$$$
>  <compound>
O=C(c1cc(Cc2n[nH]c(=O)c3ccccc23)ccc1F)N1CCN(C(=O)C2CC2)CC1 + Cc1[nH]c2ccc(F)cc2c1-c1nc2c3cccnc3c3ncccc3c2[nH]1

>  <measured.target>
317291-083-R-J1-PDC complex spheroids, viability

>  <viability, T/C>
81.8%

$$$$
>  <compound>
Cc1cccc(N(C)C(=O)C2C(O)CCN2c2nc(C)cc(C(F)(F)F)c2C#N)c1 (stereo not given) + CN(C)c1ccc(Nc2c3ccc(NC(=O)CCN4CCCC4)cc3nc3cc(NC(=O)CCN4CCCC4)ccc23)cc1

>  <measured.target>
317291-083-R-J1-PDC complex spheroids, viability

>  <viability, T/C>
3.67%

$$$$

Consider the record given below.
query: Under 317291-083-R-J1-PDC complex spheroids, viability, report viability, T/C for CC(C)n1c(=O)n(C)c2cnc3cc(F)c(-c4ccc(OCCCN5CCCCC5)nc4)cc3c21 + Cc1cnc(CNC(=O)c2c(=O)c3ccc(N4CCCN(C)CC4)nc3n3c2sc2ccccc23)cn1
result: 21.9%
